Molecular target: human glucagon-like peptide-1 receptor (GLP-1R) (Homo sapiens)
Construct: host or cells: CHO chAMPion cells
Experiment: Human GLP-1 receptor cell-based assay (flash luminescence, Target Activation phase)
Conditions: CHO chAMPion cells stably co-expressing human GLP-1R, Photina and cAMP-activated calcium channel; agonist activity; normalization by forskolin at 10 μM; ^a) values from single experiment; read-out: EC50 (μM) Target Activation (TA)
Where a SMILES comes first, the peptide text is derived from it. [ ]: non-standard residue; d: D form. Ac6c = NC1(C(=O)O)CCCCC1
Listing: EC50 of selected molecules
READOUT: EC50 (µM)

molecule="CC(C)C[C@@H]1NC(=O)[C@H](Cc2c[nH]c3ccccc23)NC(=O)[C@H](Cc2ccccc2)NC(=O)C2(CCCCC2)NC(=O)[C@H]2CCCN2C(=O)[C@H](Cc2ccc(O)cc2)NC(=O)[C@H](CCC(=O)O)NC(=O)[C@H](Cc2c[nH]c3ccccc23)NC(=O)[C@H](C)NC(=O)[C@H](Cc2ccc(O)cc2)NC1=O [compound 12] (cyclo(FWLYAWEY[dP][Ac6c]))" reading_unit=µM recorded_result=0.48
molecule="C[C@@H]1NC(=O)[C@H](Cc2ccc(O)cc2)NC(=O)[C@H](CCC(N)=O)NC(=O)[C@H](Cc2ccc(O)cc2)NC(=O)[C@H](Cc2ccccc2)NC(=O)C2(CCCCC2)NC(=O)[C@H]2CCCN2C(=O)[C@H](Cc2ccc(O)cc2)NC(=O)[C@H](CCC(=O)O)NC(=O)[C@H](Cc2c[nH]c3ccccc23)NC1=O [compound 14] (cyclo(FYQYAWEY[dP][Ac6c]))" reading_unit=µM recorded_result=0.72
molecule="COc1ccc(C[C@@H]2NC(=O)[C@H](CCC(N)=O)NC(=O)[C@H](Cc3c[nH]c4ccccc34)NC(=O)[C@H](Cc3ccccc3)NC(=O)C3(CCCCC3)NC(=O)[C@H]3CCCN3C(=O)[C@H](CCCNC(=N)N)NC(=O)[C@H](CCC(=O)O)NC(=O)[C@H](Cc3c[nH]c4ccccc34)NC(=O)[C@H](C)NC2=O)cc1 [compound 23] (cyclo(FWQY(Me)AWER[dP][Ac6c]))" reading_unit=µM recorded_result=0.67

###

Target: human glucagon-like peptide-1 receptor (GLP-1R) (Homo sapiens, UniProt P43220)
Construct: host or cells: CHO chAMPion cells
Sequence (P43220 24-463): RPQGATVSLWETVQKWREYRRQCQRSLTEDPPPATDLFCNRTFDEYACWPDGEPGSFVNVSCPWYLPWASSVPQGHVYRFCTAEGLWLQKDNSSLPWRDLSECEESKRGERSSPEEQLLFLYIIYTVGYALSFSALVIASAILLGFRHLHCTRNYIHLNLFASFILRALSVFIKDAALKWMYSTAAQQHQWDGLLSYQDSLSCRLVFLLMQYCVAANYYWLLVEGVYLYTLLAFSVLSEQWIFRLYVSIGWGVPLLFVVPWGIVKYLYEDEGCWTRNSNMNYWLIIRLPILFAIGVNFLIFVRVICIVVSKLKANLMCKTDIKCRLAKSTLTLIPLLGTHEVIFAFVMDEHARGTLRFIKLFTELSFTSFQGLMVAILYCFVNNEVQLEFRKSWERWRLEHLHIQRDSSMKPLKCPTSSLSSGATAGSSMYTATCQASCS
Experiment: Human GLP-1 receptor cell-based assay (flash luminescence, Target Activation phase)
Conditions: CHO chAMPion cells stably co-expressing human GLP-1R, Photina and cAMP-activated calcium channel; agonist activity; normalization by forskolin at 10 μM; ^a) values from single experiment; read-out: EC50 (μM) Target Activation (TA)
Where a SMILES comes first, the peptide text is derived from it. [ ]: non-standard residue; d: D form. Trp(5-OH) = N[C@@H](Cc1c[nH]c2ccc(O)cc12)C(=O)O; Phe(4-NH2) = Nc1ccc(C[C@H](N)C(=O)O)cc1; Ac7c = NC1(C(=O)O)CCCCCC1; Ac6c = NC1(C(=O)O)CCCCC1; Ac5c = NC1(C(=O)O)CCCC1
Labelling field: enter 1.0 if recorded EC50 is less than 0.7 µM. Enter 0.0 if it equals or exceeds that cut-off.

compound="CC(C)C[C@@H]1NC(=O)[C@H](Cc2c[nH]cn2)NC(=O)[C@H](Cc2ccccc2)NC(=O)C2(CCCCC2)NC(=O)[C@H]2CCCN2C(=O)[C@H](Cc2ccc(O)cc2)NC(=O)[C@H](CCC(=O)O)NC(=O)[C@H](Cc2c[nH]c3ccccc23)NC(=O)[C@H](C)NC(=O)[C@H](Cc2ccc(O)cc2)NC1=O [compound 20] (cyclo(FHLYAWEY[dP][Ac6c]))" subject_of_test="human glucagon-like peptide-1 receptor (GLP-1R) (Homo sapiens, UniProt P43220)" answer_label=1.0
compound="CC(C)C[C@@H]1NC(=O)[C@H](CC(C)C)NC(=O)[C@H](CCC(=O)O)NC(=O)[C@H](Cc2ccccc2)NC(=O)C2(CCCCCC2)NC(=O)[C@H]2CCCN2C(=O)[C@H](Cc2ccccc2)NC(=O)[C@H](CCC(=O)O)NC(=O)[C@H](Cc2c[nH]c3ccccc23)NC(=O)[C@H](C)NC1=O [compound 53] (cyclo(FELLAWEF[dP][Ac7c]))" subject_of_test="human glucagon-like peptide-1 receptor (GLP-1R) (Homo sapiens, UniProt P43220)" answer_label=0.0
compound="C[C@@H]1NC(=O)[C@H](Cc2ccc(O)cc2)NC(=O)[C@H](CCC(N)=O)NC(=O)[C@H](Cc2ccc(N)cc2)NC(=O)[C@H](Cc2ccccc2)NC(=O)C2(CCCCC2)NC(=O)[C@H]2CCCN2C(=O)[C@H](CCCNC(=N)N)NC(=O)[C@H](CCC(=O)O)NC(=O)[C@H](Cc2c[nH]c3ccccc23)NC1=O [compound 21] (cyclo(F[Phe(4-NH2)]QYAWER[dP][Ac6c]))" subject_of_test="human glucagon-like peptide-1 receptor (GLP-1R) (Homo sapiens, UniProt P43220)" answer_label=1.0
compound="CC(C)C[C@@H]1NC(=O)[C@H](CC(C)C)NC(=O)[C@H](CCC(=O)O)NC(=O)[C@H](Cc2ccccc2)NC(=O)C2(CCCC2)NC(=O)[C@H]2CCCN2C(=O)[C@H](Cc2ccccc2)NC(=O)[C@H](CCC(=O)O)NC(=O)[C@H](Cc2c[nH]c3ccccc23)NC(=O)[C@H](C)NC1=O [compound 44] (cyclo(FELLAWEF[dP][Ac5c]))" subject_of_test="human glucagon-like peptide-1 receptor (GLP-1R) (Homo sapiens, UniProt P43220)" answer_label=0.0
compound="CC(C)C[C@@H]1NC(=O)[C@H](CCC(=O)O)NC(=O)[C@H](Cc2ccccc2)NC(=O)C2(CCCCC2)NC(=O)[C@H]2CCCN2C(=O)[C@H](Cc2c[nH]c3ccc(O)cc23)NC(=O)[C@H](CCC(=O)O)NC(=O)[C@H](Cc2c[nH]c3ccccc23)NC(=O)[C@H](C)NC(=O)[C@H](Cc2ccc(O)cc2)NC1=O [compound 25] (cyclo(FELYAWE[Trp(5-OH)][dP][Ac6c]))" subject_of_test="human glucagon-like peptide-1 receptor (GLP-1R) (Homo sapiens, UniProt P43220)" answer_label=0.0
